Target Or System: MeCP2-TBL1 interaction (MeCP2-SmBiT / TBL1-LgBiT) (Mus musculus)
Construct: expressed in transfected cells; crude lysate used as a cell-free assay
Sequence (Q9QXE7 166-527): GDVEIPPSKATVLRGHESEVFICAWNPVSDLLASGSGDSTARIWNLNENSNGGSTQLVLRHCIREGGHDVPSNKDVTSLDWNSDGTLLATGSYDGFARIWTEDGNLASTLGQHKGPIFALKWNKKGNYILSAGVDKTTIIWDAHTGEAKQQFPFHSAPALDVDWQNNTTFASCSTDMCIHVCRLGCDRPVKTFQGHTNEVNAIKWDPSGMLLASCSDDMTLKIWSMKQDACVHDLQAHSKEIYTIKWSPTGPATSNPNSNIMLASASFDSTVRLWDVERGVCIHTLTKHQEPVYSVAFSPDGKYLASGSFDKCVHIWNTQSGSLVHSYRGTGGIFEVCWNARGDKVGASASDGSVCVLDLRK
Assay Info: MeCP2-TBL1 NanoLuc luciferase complementation assay (cell-free, extracts of transfected HEK293 cells);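 further: each compound tested at 20 µM final concentration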
Assay type: binding, human
Run Conditions: primary screen of the Asinex library, sheet "Sargen output Asinex library", one well per compound
This listing pairs compounds with measured Inhibition percent.
Endpoint: Inhibition percent (%)

> print(dat)
                                   compound            endpoint  data.value
1  O=C1OC2(CCN(C(=O)C3(c4ccccc4)CCCC3)C2)CN1Cc1ccc(F)cc1 (stereo not shown) [BDH_32289921]  Inhibition percent        0.62
2  CCc1nccn1-c1ccc(C(=O)N2[C@H]3CCC[C@H]4N[C@@H](Cc5ccccc5)[C@@H]2C[C@@]34C)cn1 [BDG_33507727]  Inhibition percent       -2.00
3  COc1cccc([C@H]2C[C@@](C)(NC(=O)C(C)C)[C@@H]3CC[C@@H](C)C[C@H]3O2)c1OCCN(C)C [BDH_33687810]  Inhibition percent       -1.87
4  CC(=O)N[C@@]12CN(CC(=O)Nc3cccc4c3CCCC4)CC[C@@H]1[C@@H](c1ccccc1)N(C)C2 [BDH_32251192]  Inhibition percent        4.01

* * *

Tested on: PRKACA-PRKAR2A interaction (SmBiT-PRKACA / LgBiT-PRKAR2A), protein kinase A
Set-up: NanoLuc complementation counter-screen in cell extract, PRKACA with PRKAR2A, loss of luminescence, detects NanoLuc interference
Run Conditions: counter-screen for NanoLuc interference; 0.5 h, 20 µM; inhibitor
This listing pairs molecules with measured Inh (PKA).
Endpoint: Inh (PKA) (%)

> print(dat)
                                   molecule   endpoint  data.value
1  CN1C/C(=C/c2ccc(B(O)O)cc2)C(=O)/C(=C\c2ccc(B(O)O)cc2)C1  Inh (PKA)       1.277
2  O=C(c1cc(Cc2n[nH]c(=O)c3ccccc23)ccc1F)N1CCN(C(=O)C2CC2)CC1  Inh (PKA)       2.339
3  Cn1cnc2c(F)c(Nc3ccc(Br)cc3Cl)c(C(=O)NOCCO)cc21 [UM0130968:04, AZD6244 (Selumetinib)]  Inh (PKA)        16.5
4  O=S(=O)(CC1CS1)c1ccc(Oc2ccccc2)cc1 (stereo not shown)  Inh (PKA)       17.13

* * *

This listing pairs compounds with measured Inh (PKA).
System: PRKACA-PRKAR2A interaction (SmBiT-PRKACA / LgBiT-PRKAR2A), protein kinase A
Design: NanoLuc complementation counter-screen in cell extract, PRKACA with PRKAR2A, loss of luminescence, detects NanoLuc interference
Run Conditions: counter-screen for NanoLuc interference; 0.5 h, 20 µM; inhibitor
Structures can show the parent of a compound that is named as a salt.
Endpoint: Inh (PKA)

Compound	Target Or System	Endpoint	Data Value
COc1cc2nccc(Oc3ccc(NC(=O)NC4CC4)c(Cl)c3)c2cc1C(N)=O [UM0130973:02, Lenvatinib (E7080)]	PRKACA-PRKAR2A interaction (SmBiT-PRKACA / LgBiT-PRKAR2A), protein kinase A	Inh (PKA)	3.422%
N#Cc1cnc(Nc2cc(NC[C@H]3CNCCO3)c(C(F)(F)F)cn2)cn1	PRKACA-PRKAR2A interaction (SmBiT-PRKACA / LgBiT-PRKAR2A), protein kinase A	Inh (PKA)	4.036%
CNC(=O)[C@H](Cc1ccccc1)NC(=O)[C@H](CC(C)C)[C@H](CSc1cccs1)C(=O)NO	PRKACA-PRKAR2A interaction (SmBiT-PRKACA / LgBiT-PRKAR2A), protein kinase A	Inh (PKA)	1.977%
O=C1NC(=O)C(=Cc2ccc(-c3ccc(F)cc3)o2)S1 (stereo in doubt)	PRKACA-PRKAR2A interaction (SmBiT-PRKACA / LgBiT-PRKAR2A), protein kinase A	Inh (PKA)	43.9%
Cc1c(-c2ccnn2C)cc(C(=O)NCc2ccc(S(C)(=O)=O)cn2)c(=O)n1-c1cccc(C(F)(F)F)c1	PRKACA-PRKAR2A interaction (SmBiT-PRKACA / LgBiT-PRKAR2A), protein kinase A	Inh (PKA)	0.5125%
CO[C@@]12[C@H](COC(N)=O)C3=C(C(=O)C(C)=C(N)C3=O)N1C[C@@H]1N[C@@H]12	PRKACA-PRKAR2A interaction (SmBiT-PRKACA / LgBiT-PRKAR2A), protein kinase A	Inh (PKA)	0.5965%
O=[N+]([O-])c1ccc2c(c1)S(=O)(=O)C=C2	PRKACA-PRKAR2A interaction (SmBiT-PRKACA / LgBiT-PRKAR2A), protein kinase A	Inh (PKA)	9.361%
CC(C)c1cc(C(=O)N2Cc3ccc(CN4CCN(C)CC4)cc3C2)c(O)cc1O	PRKACA-PRKAR2A interaction (SmBiT-PRKACA / LgBiT-PRKAR2A), protein kinase A	Inh (PKA)	8.919%
CC(C)[C@]12O[C@H]1[C@@H]1O[C@]13[C@]1(O[C@H]1C[C@H]1C4=C(CC[C@@]13C)C(=O)OC4)[C@@H]2O [UM0141641:01, Triptolide]	PRKACA-PRKAR2A interaction (SmBiT-PRKACA / LgBiT-PRKAR2A), protein kinase A	Inh (PKA)	1.248%
COc1ccccc1S(=O)(=O)Nc1ccc2c(c1)CN(C)C(=O)N2	PRKACA-PRKAR2A interaction (SmBiT-PRKACA / LgBiT-PRKAR2A), protein kinase A	Inh (PKA)	3.719%
Nc1nc(F)nc2c1ncn2[C@@H]1O[C@H](CO)[C@@H](O)[C@@H]1O	PRKACA-PRKAR2A interaction (SmBiT-PRKACA / LgBiT-PRKAR2A), protein kinase A	Inh (PKA)	1.153%
O=S(=O)(NCCSSCCNS(=O)(=O)c1cc(Cl)ccc1Cl)c1cc(Cl)ccc1Cl	PRKACA-PRKAR2A interaction (SmBiT-PRKACA / LgBiT-PRKAR2A), protein kinase A	Inh (PKA)	19.45%
CCCCCCCCCCCC1=C(O)C(=O)C=C(O)C1=O	PRKACA-PRKAR2A interaction (SmBiT-PRKACA / LgBiT-PRKAR2A), protein kinase A	Inh (PKA)	15.52%
Cc1cc(C)c2c(c1)[C@@H](N(Cc1cc(C(F)(F)F)cc(C(F)(F)F)c1)c1nnn(C)n1)CCCN2C[C@H]1CC[C@H](C(=O)O)CC1	PRKACA-PRKAR2A interaction (SmBiT-PRKACA / LgBiT-PRKAR2A), protein kinase A	Inh (PKA)	12.81%
O=C(O)c1cc2cccc([N+](=O)[O-])c2[nH]1	PRKACA-PRKAR2A interaction (SmBiT-PRKACA / LgBiT-PRKAR2A), protein kinase A	Inh (PKA)	5.384%
Nc1nc(NC2CC2)c2ncn([C@H]3C=C[C@@H](CO)C3)c2n1	PRKACA-PRKAR2A interaction (SmBiT-PRKACA / LgBiT-PRKAR2A), protein kinase A	Inh (PKA)	2.063%
C=CC[C@@H]1/C=C(\C)C[C@H](C)C[C@H](OC)[C@H]2O[C@@](O)(C(=O)C(=O)N3CCCC[C@H]3C(=O)O[C@H](/C(C)=C/[C@@H]3CC[C@@H](O)[C@H](OC)C3)[C@H](C)[C@@H](O)CC1=O)[C@H](C)C[C@@H]2OC	PRKACA-PRKAR2A interaction (SmBiT-PRKACA / LgBiT-PRKAR2A), protein kinase A	Inh (PKA)	15.44%
Cn1cc(C2=C(c3cn(CCCSC(=N)N)c4ccccc34)C(=O)NC2=O)c2ccccc21 [UM0142439:01, Ro 31-8220 Mesylate]	PRKACA-PRKAR2A interaction (SmBiT-PRKACA / LgBiT-PRKAR2A), protein kinase A	Inh (PKA)	76.02%
CCN1CCCC1CNC(=O)c1cc(S(=O)(=O)CC)c(N)cc1OC (centres unmarked) [UM0142272:01, Amisulpride]	PRKACA-PRKAR2A interaction (SmBiT-PRKACA / LgBiT-PRKAR2A), protein kinase A	Inh (PKA)	0.7269%
CC1(C)CC(=O)c2c(C(F)(F)F)nn(-c3ccc(C(N)=O)c(N[C@H]4CC[C@H](O)CC4)c3)c2C1	PRKACA-PRKAR2A interaction (SmBiT-PRKACA / LgBiT-PRKAR2A), protein kinase A	Inh (PKA)	12.62%
O=C(NC[C@@H]1CN(c2ccc(N3CCOCC3=O)cc2)C(=O)O1)c1ccc(Cl)s1	PRKACA-PRKAR2A interaction (SmBiT-PRKACA / LgBiT-PRKAR2A), protein kinase A	Inh (PKA)	3.342%
CCCC[N+]1(C)[C@@H]2C[C@@H](OC(=O)[C@H](CO)c3ccccc3)C[C@H]1[C@@H]1O[C@@H]12 (some centres unmarked) [UM0142864:01, Scopolamine butylbromide]	PRKACA-PRKAR2A interaction (SmBiT-PRKACA / LgBiT-PRKAR2A), protein kinase A	Inh (PKA)	0.502%
C=C1CC[C@@H]2[C@](C)(CO)[C@H](O)CC[C@@]2(C)[C@H]1C/C=C1\C=COC1=O [UM0142846:01, Dehydroandrographolide]	PRKACA-PRKAR2A interaction (SmBiT-PRKACA / LgBiT-PRKAR2A), protein kinase A	Inh (PKA)	12.37%
CC(NC(=O)[C@H](Cc1ccccc1)NC(=O)OCc1ccccc1)C(=O)CF (some centres unmarked)	PRKACA-PRKAR2A interaction (SmBiT-PRKACA / LgBiT-PRKAR2A), protein kinase A	Inh (PKA)	4.07%
CCOc1cc(C(=O)N2CCC(N3CCN(C)CC3)CC2)ccc1Nc1ncc2c(n1)N(C1CCCC1)c1ccccc1C(=O)N2C	PRKACA-PRKAR2A interaction (SmBiT-PRKACA / LgBiT-PRKAR2A), protein kinase A	Inh (PKA)	18.58%
COc1ccc(-c2nc3cc(C4=NNC(=O)CC4C)ccc3[nH]2)cc1 (centres unmarked)	PRKACA-PRKAR2A interaction (SmBiT-PRKACA / LgBiT-PRKAR2A), protein kinase A	Inh (PKA)	10.77%
